Kindly supply the reported recombinant UMI read abundance (log10) values for the records listed here.
Assay: recombinant UMI read abundance after kanamycin selection (control-corrected) (log10(CPM+1)); higher = more efficient recombination; extreme values may be limits of the assay; sequences stand for … in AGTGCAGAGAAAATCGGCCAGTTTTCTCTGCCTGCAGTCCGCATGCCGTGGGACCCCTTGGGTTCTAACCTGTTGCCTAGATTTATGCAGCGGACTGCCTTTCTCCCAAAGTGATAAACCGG…AGGTTGGTTTCACT; site = the 11-nt donor;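 also: IS621 bridge recombinase in Escherichia coli cells against a fixed T5 target plasmid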
Reply: number alone, nothing else.

Tell me recombinant UMI read abundance (log10) reported for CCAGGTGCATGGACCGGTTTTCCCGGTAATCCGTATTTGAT (site CCTGGTGCTAT)
0

Give the reported value of recombinant UMI read abundance (log10) for this record: GGTGGTCCATGGACCGGTTTTCCCGGTAATCCGTATTTGCC (site GGTGGTCCTGG)
0

Please look at this sequence and report its recombinant UMI read abundance (log10): ACAGAGACATGGACCGGTTTTCCCGGTAATCCGTATTTGCG (site ACAGAGACTCG)
2.84

Give recombinant UMI read abundance (log10) for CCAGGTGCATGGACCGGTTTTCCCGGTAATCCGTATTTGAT (site CCAGGTGCTGT)
0

Quick one: give measured recombinant UMI read abundance (log10) for TCCTATACATGGACCGGTTTTCCCGGTAATCCGTATTTGGA (site TCCTATACTTC)
0.0113

Supply measured recombinant UMI read abundance (log10) of TGGAATCCATGGACCGGTTTTCCCGGTAATCCGTATTTGTT (site CGGAATCCTAA) in your reply.
0

Respond only with recombinant UMI read abundance (log10) recorded for CGCGGTCCATGGACCGGTTTTCCCGGTAATCCGTATTTGCA (site CGCGGTCCTTG)
1.12

Give the value of recombinant UMI read abundance (log10) reported for the following: CGAGGAGCATGGACCGGTTTTCCCGGTAATCCGTATTTGGG (site CGAGGACCTCC)
0.0303

Read off the recorded recombinant UMI read abundance (log10) for CGTGGTACATGGACCGGTTTTCCCGGTAATCCGTATTTGTT (site CGTGGAACTAA)
0.177

====

Task for the reader: assign each of the following sequences its reported recombinant UMI read abundance (log10).
Assay: recombinant UMI read abundance after kanamycin selection (control-corrected) (log10(CPM+1)); higher = more efficient recombination; extreme values may be limits of the assay; sequences stand for … in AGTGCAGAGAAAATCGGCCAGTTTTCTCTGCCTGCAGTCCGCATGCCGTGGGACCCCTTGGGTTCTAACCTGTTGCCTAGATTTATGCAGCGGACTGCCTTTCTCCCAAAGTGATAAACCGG…AGGTTGGTTTCACT; site = the 11-nt donor

Quote recombinant UMI read abundance (log10) reported for CGCCCTACATGGACCGGTTTTCCCGGTAATCCGTATTTGCT (site CGCCCTACTAG) please.
1.28

Specify recombinant UMI read abundance (log10) for CTACTGACATGGACCGGTTTTCCCGGTAATCCGTATTTGGA (site CTACTAACTTC) and stop.
1.76

Return reported recombinant UMI read abundance (log10). Input sequence: TGTGCTGCATGGACCGGTTTTCCCGGTAATCCGTATTTGTA (site TGTGCTGCTTA)
0.0197

For CTGGATACATGGACCGGTTTTCCCGGTAATCCGTATTTGCA (site CTGGAAACTTG) , write its recombinant UMI read abundance (log10).
1.14

Identify measured recombinant UMI read abundance (log10) corresponding to GCAACTGCATGGACCGGTTTTCCCGGTAATCCGTATTTGCC (site GCAACTGCTGG)
0

Input CAGAATACATGGACCGGTTTTCCCGGTAATCCGTATTTGCA (site AAGAATACTTG) , output reported recombinant UMI read abundance (log10).
0.616

State its recombinant UMI read abundance (log10): AGAAGGGCATGGACCGGTTTTCCCGGTAATCCGTATTTGCT (site AGAAAGGCTAG)
1.73

# return recorded recombinant UMI read abundance (log10) for entry CACTCGGCATGGACCGGTTTTCCCGGTAATCCGTATTTGGA (site CACTTGGCTTC)
0.0193

Tell us which recombinant UMI read abundance (log10) value is on record for ATGTATGCATGGACCGGTTTTCCCGGTAATCCGTATTTGGC (site ATGTATGCTGC)
3.22
